protocol: Cytotoxicity to CRFK cells under normal lighting
Type: cell-based
setup.conditions: cat (Felis catus), CRFK cells (kidney cortex), confluent monolayer
readout: CC50 at 48 h

Input line: Fill blank: measured CC50 at 48 h of the molecule Oc1ccc(C#Cc2ccc3c4cccc5cccc(c6cccc2c63)c54)cc1 is ____.
Output line: > 10 µM

Origin of measurements: paper PMC10488391
